// reported Plant response rating, Galium per item
# Test system: Galium (catchweed bedstraw, Galium aparine)
# Experiment Description: Test C preemergence
# Format: in vivo
# Condition Summary: 250 g ai/ha, scale 0 to 100, 0 no effect, 100 complete control
Please give the numeric answer without any surrounding text.

See these solved cases before continuing.
>>> numeric_result("CN1CC(c2cccc(OC(F)F)c2)C(C(=O)Nc2cccc(F)c2F)C1=O (stereo not shown)")
90
>>> numeric_result("O=C1NCC(c2cccc(OC(F)F)c2)C1C(=O)Nc1ccc(F)cc1F (stereo not shown)")
45
>>> numeric_result("O=C1NCC(c2ccc(I)cc2)C1C(=O)Nc1cccc(F)c1F (racemic)")
40
>>> numeric_result("O=C1NCC(c2cccc(OC(F)(F)C(F)F)c2)C1C(=O)Nc1ccc(F)c(F)c1F (racemic)")
90

Would you kindly share the measured Plant response rating, Galium for CN1CC(c2ccc(F)c(F)c2)C(C(=O)Nc2ccccc2C(F)(F)F)C1=O (stereo not shown) ?
85

And what about the compound O=C1NCC(c2cc(F)cc(C(F)(F)F)c2)C1C(=O)Nc1cccc(F)c1F (stereo not shown) ?
85

And then CN1CC(c2cc(F)cc(F)c2)C(C(=O)Nc2ccc(F)c(F)c2F)C1=O (stereo not shown) , what is it?
100

====

# System: giant foxtail (Setaria faberii)
# Experiment Description: Test A preemergence
# Assay type: in vivo
# Condition Summary: 125 g ai/ha, preemergence; 0 to 100 scale (0 no effect, 100 complete control)
Property Measured: Plant response rating, Foxtail, Giant
// keep it numeric: no unit symbol after the value

A selection of reference data follows.
>>> numeric_result("Cc1cc(C2CN(C)C(=O)C2C(=O)Nc2cccc(F)c2F)ccc1F (stereo not drawn) [Compound 403]")
90
>>> numeric_result("CN1CC(c2ccc(F)cc2)C(C(=O)Nc2ccccc2F)C1=O (stereo not drawn) [Compound 437]")
90

Return reported Plant response rating, Foxtail, Giant; argument: Cn1nccc1NC(=O)C1C(=O)NCC1c1ccc(F)c(F)c1 (racemic) [Compound 362]
0

====

Catalogue of pest or weed control at 125 g/ha readings, one per entry.
# Tested on: giant foxtail (Setaria faberii)
# Experiment Description: Test A preemergence
# Type: in vivo
# Condition Summary: Setaria faberi, pre-emergence, 240 h, 125 g ai/ha, preemergence; visual rating after approx. 10 d; 0 to 100 scale where 0 is no effect and 100 is complete control; read-out: Plant response rating, Foxtail, Giant
Express your answer in %, writing the number without its unit.

>>> numeric_result("O=C1NC[C@H](c2csc3ccccc23)[C@H]1C(=O)Nc1ccccc1F")
50

I'd like to know its pest or weed control at 125 g/ha. The compound in question is `CCc1cc(CC)cc([C@H]2CN(C)C(=O)[C@@H]2C(=O)Nc2ccccc2F)c1`
90

Note, next up: `Cc1ccc([C@H]2CNC(=S)[C@@H]2C(=O)Nc2cccc(F)c2F)cc1C`
30

Another compound: `CN1CC[C@H](c2cccc(OC(F)(F)F)c2)[C@@H](C(=O)Nc2ccccc2C(F)(F)F)C1=O`
0

// same read-out, input: `CN1C[C@H](c2cccc(C3CC3)c2)[C@@H](C(=O)Nc2ccccc2F)C1=O`
90

How about `O=C1NC[C@H](c2csc3ccccc23)[C@H]1C(=O)Nc1cccc(F)c1F` ?
80

====

# Test system: rice (Oryra sativa)
# Experiment Description: Test B flooded paddy test
# Format: in vivo
# Condition Summary: Oryza sativa, Flood, 250 g ai/ha; scale of 0 to 100 where 0 is no effect and 100 is complete control; read-out: Rice plant response rating
Property Measured: pest or weed control at 250 g/ha (%)
# output: bare number, implied unit %

>>> numeric_result("O=C1NC[C@H](c2cncc(C(F)(F)F)c2)[C@H]1C(=O)Nc1ccccc1F [Compound 887]")
0

I have this molecule here, Cc1ccc([C@H]2CN(C)C(=O)[C@@H]2C(=O)Nc2cccc(F)c2F)c(F)c1 [Compound 730] , and I need its recorded pest or weed control at 250 g/ha.
0

Further, for O=C1NC[C@H](c2ccc3c(c2)CCO3)[C@H]1C(=O)Nc1ccc(F)cc1F [Compound 902] ?
0

Okay, and CN1C[C@H](c2ccc(F)c(OC(F)(F)C(F)F)c2)[C@@H](C(=O)Nc2ccccc2F)C1=O [Compound 740] ?
50

Proceed to CN1C[C@H](c2cccc(F)c2)[C@@H](C(=O)Nc2ccccc2F)C1=O [Compound 822]
0

Follow-up entry: CN1C[C@H](c2cc(F)cc(F)c2)[C@@H](C(=O)Nc2ccc(O)cc2F)C1=O [Compound 985]
0

Quick one: COc1cc([C@H]2CN(C)C(=O)[C@@H]2C(=O)Nc2ccccc2SC)ccc1C(F)(F)F [Compound 769]
15

Do the same for CN1CC[C@H](c2ccc(F)cc2)[C@@H](C(=O)Nc2ccccc2F)C1=O [Compound 917] please
0

====

Each record here notes measured Plant response rating, Blackgrass.
# Test system: blackgrass (Alopecurus myosuroides)
# Experiment Description: Test A postemergence
# Format: in vivo
# Condition Summary: 500 g ai/ha, postemergence; visual injury, 0 to 100 scale (0 no effect, 100 complete control), approx. 10 d
// return just the number, without any unit appended

Some solved cases for reference:
>>> numeric_result("O=C1NCC(c2cccc(OC(F)(F)C(F)F)c2)C1C(=O)Nc1ccc(F)c(F)c1F (racemic) [Compound 698]")
40
>>> numeric_result("CN1CC(c2cc(F)cc(F)c2)C(C(=O)Nc2cccc3c2CCCC3)C1=O (stereo not shown) [Compound 660]")
40
>>> numeric_result("O=C1NCC(c2ccc(I)cc2)C1C(=O)Nc1cccc(F)c1F (racemic) [Compound 700]")
50

Now for a further molecule.
Tell me the measured Plant response rating, Blackgrass of CCc1cc(C2CNC(=O)C2C(=O)Nc2ccccc2F)cs1 (racemic) [Compound 657] , please.
30

====

# System: pigweed (Amaranthus retroflexus)
# Experiment Description: Test A preemergence
# Type: in vivo
# Condition Summary: Amaranthus retroflexus, pre-emergence, 240 h, 500 g ai/ha, Preemergence, visual injury vs untreated controls after approximately 10 d; read-out: Pigweed plant response rating (0 to 100 scale where 0 is no effect and 100 is complete control)
Catalogue of pest or weed control at 500 g/ha readings, one per entry.
Write down the numeric answer in % and omit the unit.

Known pest or weed control at 500 g/ha results, listed for orientation:
>>> numeric_result("CN1C[C@H](c2ccc(C#N)cc2)[C@@H](C(=O)Nc2cccc(F)c2F)C1=O (racemic) [Compound 775]")
70
>>> numeric_result("Cc1c(F)cccc1NC(=O)[C@H]1C(=O)N(C)C[C@@H]1c1cc(F)c(F)c(F)c1 [Compound 867]")
30
>>> numeric_result("COc1cc(C(F)(F)F)ccc1[C@H]1CN(C)C(=O)[C@@H]1C(=O)Nc1ccccc1F [Compound 858]")
50

Record request: pest or weed control at 500 g/ha value, item CCOc1ccc([C@H]2CN(C)C(=O)[C@@H]2C(=O)Nc2ccccc2F)cc1 [Compound 903]
0

Further, for COc1c(F)ccc([C@H]2CN(C)C(=O)[C@@H]2C(=O)Nc2cccc(F)c2F)c1Cl [Compound 893] ?
50

====

Listed below: Plant response rating, Velvetleaf values for each entry.
# Tested on: velvetleaf (Abutilon theophrasti)
# Experiment Description: Test C preemergence
# Assay type: in vivo
# Condition Summary: 125 g ai/ha, scale 0 to 100, 0 no effect, 100 complete control
Lab note: write the figure by itself, no unit.

>>> numeric_result("O=C1NCC(c2cccc(OC(F)(F)C(F)F)c2)C1C(=O)Nc1ccc(F)c(F)c1F (racemic)")
50
>>> numeric_result("O=C1NCC(c2ccc3c(c2)OC(F)(F)O3)C1C(=O)Nc1cccc(F)c1F (stereo not shown)")
15
>>> numeric_result("O=C1NCC(c2cccc(OC(F)(F)C(F)F)c2)C1C(=O)Nc1cccc(F)c1F (racemic)")
65

Note: attention shifts to another entry.
Query (compound): O=C1NCC(c2ccc(I)cc2)C1C(=O)Nc1cccc(F)c1F (racemic) ; field requested: Plant response rating, Velvetleaf
20

====

# Tested on: pigweed (Amaranthus retroflexus)
# Experiment Description: Test C preemergence
# Assay type: in vivo
# Condition Summary: 31 g ai/ha, 0 is no effect, 100 is complete control
Readings of Plant response rating (scale of 0 to 100), Pigweed for the listed compounds
Provide a numeric answer; units are not to be included.

>>> numeric_result("CN1CC(c2cccc(OC(F)F)c2)C(C(=O)Nc2cccc(F)c2F)C1=O (stereo not shown)")
75
>>> numeric_result("O=C1NCC(c2cccc(OC(F)(F)C(F)F)c2)C1C(=O)Nc1cccc(F)c1F (racemic)")
75
>>> numeric_result("CN1CC(c2cc(F)cc(F)c2)C(C(=O)Nc2ccc(F)c(F)c2F)C1=O (stereo not shown)")
0

With those in mind, consider the next compound.
Fill blank: measured Plant response rating (scale of 0 to 100), Pigweed of the compound O=C1NCC(c2ccc3c(c2)OC(F)(F)O3)C1C(=O)Nc1cccc(F)c1F (stereo not shown) is ____.
70
